Sourced from ChEMBL document CHEMBL1155898

- assay: Displacement of [3H]flumazenil from CBR in bovine cortical membrane
- Format: cell membranes, Bos taurus
Overview of recorded pKi for various compounds
Remember, pKi is on a log scale: it is -log10 of the molar concentration.

Some entries whose results are on file:
compound: CCOC(=O)c1ncn2c1CN(C)C(=O)c1cc(F)ccc1-2 [FLUMAZENIL]
reported-result: 8.72
--
compound: CN1C(=O)CN=C(c2ccccc2F)c2cc([N+](=O)[O-])ccc21 [FLUNITRAZEPAM]
reported-result: 8.29
--
compound: CCOC(=O)c1ncn2c1CN=C(c1ccc([N+](=O)[O-])cc1)c1cc(F)ccc1-2
reported-result: 7.83

// returns reported pKi for input "CCOC(=O)c1ncn2c1CN=C(c1cccc([N+](=O)[O-])c1)c1cc(F)ccc1-2" 8.36

----------
- assay: Displacement of [3H]flumazenil from CBR in bovine cortical membrane
- Type: cell membranes, Bos taurus
value-type: pIC50
Note on pIC50: it is the negative log10 of concentration, concentration in mol/L.

Record request: pIC50 value, item "CCOC(=O)c1ncn2c1CN=C(c1ccc([N+](=O)[O-])cc1)c1ccccc1-2" 8.74
